# assay overview: qHTS for Inhibitors of human tyrosyl-DNA phosphodiesterase 1 (TDP1): qHTS in cells in absence of CPT; also: nearly all actives have a fitted effect of over 55% in size
# measurement parameters: DT40 Tdp1-/- hTDP1 cells, no CPT, ATP luminescence, 48 h
Hit rate of the full screen: of about 420,000 compounds, about 64,000 (15%) were called active. Inconclusive results (about 27%) are left out. Calls follow the shape of the dose curve; as a rule, active = well fitted inhibition curve with a large enough effect; inconclusive = small, poorly fitted or top-dose-only effect; inactive = flat fitted curve, though single readings scatter. Not all results are given here.
Mark one answer only. Choices: label 1 = active, label 0 = inactive

[[record]]
smiles_entry = "O=c1c(/C=N/O)coc2ccc(Cl)cc12"
group_label = "label 0"

[[record]]
smiles_entry = "COC(=O)c1[nH]c2ccc(Br)cc2c1NC(=O)Oc1ccccc1"
group_label = "label 0"

[[record]]
smiles_entry = "Cc1cc(NC(=O)c2ccccc2C)no1"
group_label = "label 0"

[[record]]
smiles_entry = "COc1ccc(-c2nc(CN3CCC(C(=O)NCc4ccccc4)CC3)c(C)o2)cc1OC"
group_label = "label 0"

[[record]]
smiles_entry = "O=C(COc1ccccc1Cl)Nn1cnnc1"
group_label = "label 0"


Let's switch to this compound now.
Check the results log: what was the call for `Cc1cc(C(=O)COc2ccc(Br)cc2F)c(C)n1C1CC1` ? label 1

====

# assay overview: qHTS for Inhibitors of human tyrosyl-DNA phosphodiesterase 1 (TDP1): qHTS in cells in absence of CPT; also: nearly all actives have a fitted effect of over 55% in size
# measurement parameters: DT40 Tdp1-/- hTDP1 cells, no CPT, ATP luminescence, 48 h
About 64,000 (15%) of roughly 420,000 compounds were called active. Not shown: some 27% with an inconclusive outcome. Calls follow the shape of the dose curve; as a rule, active = well fitted inhibition curve with a large enough effect; inconclusive = small, poorly fitted or top-dose-only effect; inactive = flat fitted curve, though single readings scatter. Not all results are given here.
Hello, when you answer, please use one of the following outcomes: active, inactive

Worked cases, answers included:
[[record]]
molecule = "C=CCNC(=O)c1cc(-c2ccccc2O)on1"
group_label = "inactive"

[[record]]
molecule = "Cc1n[nH]c(=O)n1-c1ccc(C(C)C)cc1"
group_label = "inactive"

[[record]]
molecule = "CC1C(=O)NC(=O)C1c1ccccc1 (stereo unspecified)"
group_label = "inactive"

[[record]]
molecule = "CCOc1ccc(-n2c(SC(C)C(=O)OC)nc3c(c2=O)SCC3)cc1 (stereo unspecified)"
group_label = "inactive"

[[record]]
molecule = "COc1ccc(N2CC(C(=O)N[C@@H](C)C(=O)N3CCCCC3)CC2=O)cc1 (stereo partly specified)"
group_label = "inactive"


Consider the additional molecule presented here.
What did this assay record as the result for `Cc1ccc(S(=O)(=O)c2nc(NCCCn3ccnc3)sc2Cl)cc1` ? active

====

# assay overview: qHTS for Inhibitors of human tyrosyl-DNA phosphodiesterase 1 (TDP1): qHTS in cells in absence of CPT; also: nearly all actives have a fitted effect of over 55% in size
# measurement parameters: DT40 Tdp1-/- hTDP1 cells, no CPT, ATP luminescence, 48 h
Among all 420,000 compounds or so, about 64,000 (15%) were called active. Another 27% or so got no clear call; they are omitted. Calls follow the shape of the dose curve; as a rule, active = well fitted inhibition curve with a large enough effect; inconclusive = small, poorly fitted or top-dose-only effect; inactive = flat fitted curve, though single readings scatter. Not all results are given here.
I would appreciate it if you answered using one of these outcomes: true (active), false (inactive)

[[record]]
compound = "CCCNC(=O)NC(=O)COC(=O)CC(NC(N)=O)c1ccc(Cl)cc1 (configuration not stated)"
group_label = "false"

[[record]]
compound = "O=C(NCCc1ccc(F)cc1)c1n[nH]c2ccccc12"
group_label = "false"

[[record]]
compound = "O=C(NCc1ccccn1)c1cc(-c2ccccc2Cl)on1"
group_label = "false"

[[record]]
compound = "COc1cc2[nH]c(=S)n(CCN3CCCCC3C)c(=O)c2cc1OC (configuration not stated)"
group_label = "false"

[[record]]
compound = "COc1ccc(-c2cn3c(C)c(C(=O)Nc4cc(C)cc(C)c4)sc3n2)cc1"
group_label = "true"


Hello, I am checking results. What call was entered for `Cc1ccc(C)c2c1cc(C)c1nnc(SCC(=O)Nc3cccc(C(=O)O)c3)n12` ? false

Next compound: `CC(=O)c1c(C)[nH]c(=S)c(C#N)c1-c1ccc(F)cc1` false

Param item: `N#Cc1ccc(S(=O)(=O)NCC(=O)OCC(=O)NCCc2ccccc2)cc1` false

Try the compound `O=C(COC(=O)c1n[nH]c2ccccc12)NCc1ccccc1` false

Please answer likewise for COc1ccc(-c2nc(N)sc2C2(O)C(=O)Nc3c(Br)cc(F)cc32)cc1OC (configuration not stated) false

Same again, this time with `O=C(Cc1ncc(C(F)(F)F)cc1Cl)Nc1cccc(Br)c1` false

# iterate: `Cc1nc2c(OCc3cccc(Cl)c3)cccn2c1N(C)CC1CC1` true

Do the same for `COc1ccc(NC(=O)c2cc(-c3ccc(C)cc3)on2)cc1` please false

Also need N#CCC(=O)NC1CCC(CC2CCC(NC(=O)CC#N)CC2)CC1 (configuration not stated) , thanks. false

Could you do the same for `CCNc1nc(Oc2ccc(C(=O)OC)cc2)nc(N2CCOCC2)n1` , please? false

And then `Cc1cccc(OCC(=O)Nc2ccc(C(=O)O)cc2NC(=O)COc2cccc(C)c2)c1` , what is it? false

Further, for CCn1ccnc1CNC(=O)CC1C(=O)NCCN1Cc1ccc(F)cc1Cl (configuration not stated) ? false

From: PubChem BioAssay AID686978
